Items are presented alongside their recorded Kd.
target: T1, Human Factor P (human, UniProt P27918 29-469); assay: Biacore SPR, captured Factor P
T1 construct: Bought protein (Complement Technology cat# A139) in SET and Biacore; Factor P of human serum in the functional assays; also called FP; human FP
T1 sequence (P27918 29-469 limits assumed): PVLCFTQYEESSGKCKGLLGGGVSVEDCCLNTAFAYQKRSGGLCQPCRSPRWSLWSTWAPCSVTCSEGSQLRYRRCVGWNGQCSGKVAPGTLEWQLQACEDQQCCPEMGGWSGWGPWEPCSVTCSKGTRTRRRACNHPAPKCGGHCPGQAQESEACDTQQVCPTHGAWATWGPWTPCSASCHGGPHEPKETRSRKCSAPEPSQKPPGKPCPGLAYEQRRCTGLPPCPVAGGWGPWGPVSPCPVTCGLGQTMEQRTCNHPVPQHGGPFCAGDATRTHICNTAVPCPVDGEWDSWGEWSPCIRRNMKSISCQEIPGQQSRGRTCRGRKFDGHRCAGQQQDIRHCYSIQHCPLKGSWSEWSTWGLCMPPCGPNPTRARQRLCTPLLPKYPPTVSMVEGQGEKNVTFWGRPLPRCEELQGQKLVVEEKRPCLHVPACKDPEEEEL
Respond numerically; units are nM and should not be typed.

NVS967 (Fab, V domains shown, Disulfide-bridged Fab; also called Fab NVS967) VH: EVQLVQSGAEVKKPGASVKVSCKASGYTFTSHYMHWVRQAPGQGLEWMGNINPVDGGTEYAQKFQGRVTMTRDTSISTAYMELSSLRSEDTAVYYCARDGIEHGGHYYWGYLFDIWGQGTLVTVSS VL: SYVLTQPPSVSVAPGKTARISCSGDSIREYYVHWYQQKPGQAPVLVIGDDTNRPSGIPERFSGSNSGNTATLTISRAQAGDEADYYCAAWDFSPAIVFGGGTKLTVLG; 0.06

For the next question, use this binder.
Challenge: Determine from records and report Kd for NVS962-G (Fab, V domains shown, NVS962 with heavy chain N30 replaced with glycine) VH: EVQLVQSGAEVKKPGSSVKVSCKASGGTFGSYAISWVRQAPGQGLEWMGRIIPIFGTANYAQKFQGRVTITADESTSTAYMELSSLRSEDTAVYYCARHGGYSFDSWGQGTLVTVSS VL: SYELTQPPSVSVAPGQTARISCSGDNLGSKYVDWYQQKPGQAPVLVIYSDNNRPSGIPERFSGSNSGNTATLTISGTQAEDEADYYCQTYTSGNNYLVFGGGTKLTVLG
Response given: 1.14
